tested on: A549; assay: Antiproliferative activity against human A549 cells assessed as inhibition of cell proliferation by CCK8 assay; assay type: functional, cell-based
pIC50: −log10 of the molar value.
Criterion: pIC50 meeting or surpassing 5. Met: TRUE. Not met: FALSE.

# input Does COc1cc(-c2nnc(CSc3nnc(/N=C/c4ccccc4O)s3)o2)cc(OC)c1OC have a reported pIC50 of at least 5?
# output TRUE

# input Check Oc1ccccc1/C=N/c1nnc(SCc2nnc(-c3ccc(F)cc3)o2)s1 too.
# output FALSE

# input Check COc1ccc(-c2nnc(CSc3nnc(/N=C/c4ccccc4O)s3)o2)cc1 too.
# output FALSE

# input Check Cc1ccc(-c2nnc(CSc3nnc(/N=C/c4ccccc4O)s3)o2)cc1 too.
# output FALSE

# input Check Oc1ccccc1/C=N/c1nnc(SCc2nnc(-c3ccccc3Cl)o2)s1 too.
# output FALSE

# input Check Oc1ccccc1/C=N/c1nnc(SCc2nnc(-c3ccc(Br)cc3)o2)s1 too.
# output FALSE

# input Check Oc1ccccc1/C=N/c1nnc(SCc2nnc(-c3ccccc3Br)o2)s1 too.
# output TRUE

# input Check Oc1ccccc1/C=N/c1nnc(SCc2nnc(-c3ccccc3)o2)s1 too.
# output TRUE

# input Check Oc1ccccc1/C=N/c1nnc(SCc2nnc(-c3ccc(Cl)cc3)o2)s1 too.
# output FALSE

# input Check Cc1cccc(-c2nnc(CSc3nnc(/N=C/c4ccccc4O)s3)o2)c1 too.
# output FALSE

# input Check O=[N+]([O-])c1cccc(-c2nnc(CSc3nnc(/N=C/c4ccccc4O)s3)o2)c1 too.
# output FALSE

# input Check O=[N+]([O-])c1ccc(-c2nnc(CSc3nnc(/N=C/c4ccccc4O)s3)o2)cc1 too.
# output TRUE
